Taken from ChEMBL document CHEMBL1157539.

Measured Inhibition, listed per entry.
Tested on: HepG2
Test: GSK_TCMDC: Percent inhibition of human HepG2 cell line. Test compounds present at 10uM.
Format: functional
The answer is to be given in %; state only the numeric part.

Answered examples (3):
molecule=CN(C)Cc1ccc2nc(-c3cccc(Cc4cc(Cl)ccc4OCc4ccc(Cl)cc4F)n3)[nH]c2c1.Cl observed_result=43
molecule=CC(C)CNCc1cccc(-c2cccc(CN(CCCN3CCN(C)CC3)C(=O)Nc3ccccc3)c2)c1.O=C(O)C(F)(F)F observed_result=25
molecule=Oc1ccc2ccccc2c1C=NNc1nc(=Nc2ccccc2)nc(N2CCOCC2)[nH]1 observed_result=66

The molecule Cc1ccc(-c2cncc(-c3cc(NC4CCN(Cc5ccccc5)CC4)nc(-c4ccccc4)n3)c2)cc1 showed Inhibition equal to 0

The molecule Cc1oc(-c2cccc(Oc3ccccc3)c2)nc1CN(Cc1cnn(C)c1)C(C)C showed Inhibition equal to 22

The molecule Nc1c(Cl)cc(C(O)CNCCCCCOCCc2ccc3occc3c2)cc1Cl (centres undefined) showed Inhibition equal to 0

The molecule CN1CCN(CCCN(Cc2ccc(-c3ccc(CNCc4ccc5c(c4)OCO5)cc3)cc2)C(=O)Nc2ccccc2)CC1.O=C(O)C(F)(F)F showed Inhibition equal to 36

The molecule Cc1nc(Nc2ccc(F)cc2)nc(N2CCc3cc(O)ccc3C2C)c1C.Cl (centres undefined) showed Inhibition equal to 0

The molecule S=C(NCCc1ccccc1)Nc1ccc2ncsc2c1 showed Inhibition equal to 0
